Source listed as the supplement of paper PMC10567573.

B1: CDC25B (parent)
chain: FVDILESDLKDDDAVPPGMESLIS

variants of: B1; experiment: protein stability index of a GFP-peptide fusion (GPS, HEK-293T) (PSI 1-6); higher = more stable; settings: c terminus: a fixed tail appended;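 note: lentivirally expressed fusions sorted by FACS into six bins by GFP to DsRed ratio, PSI derived from sequencing read proportions per bin multiplied by bin number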
recorded endpoint: protein stability index
Answer with a bare number; do not write a unit.

Challenge: For the variant L5D , give its reported protein stability index.
Response given: 4.61

Challenge: For the variant D12W , give its reported protein stability index.
Response given: 1.83

Challenge: For the variant D11V , give its reported protein stability index.
Response given: 2.61

Challenge: For the variant D3T , give its reported protein stability index.
Response given: 2.39

Challenge: For the variant E20K , give its reported protein stability index.
Response given: 2.74

Challenge: For the variant V2K , give its reported protein stability index.
Response given: 4.67

Challenge: For the variant P16R , give its reported protein stability index.
Response given: 2.59

Challenge: For the variant P17S , give its reported protein stability index.
Response given: 2.72

Challenge: For the variant E6R , give its reported protein stability index.
Response given: 2.2

Challenge: For the variant S21I , give its reported protein stability index.
Response given: 3.24

Challenge: For the variant L9W , give its reported protein stability index.
Response given: 2.97

Challenge: For the variant L22D , give its reported protein stability index.
Response given: 3.67

Challenge: For the variant A14P , give its reported protein stability index.
Response given: 3.15

Challenge: For the variant F1N , give its reported protein stability index.
Response given: 5.3

Challenge: For the variant I4R , give its reported protein stability index.
Response given: 3.11

Challenge: For the variant G18S , give its reported protein stability index.
Response given: 3.06

Challenge: For the variant I4S , give its reported protein stability index.
Response given: 4.05

Challenge: For the variant D13V , give its reported protein stability index.
Response given: 2.39

Challenge: For the variant D3G , give its reported protein stability index.
Response given: 2.83

Challenge: For the variant L5E , give its reported protein stability index.
Response given: 4.46

Challenge: For the variant E6K , give its reported protein stability index.
Response given: 2.84

Challenge: For the variant I4Q , give its reported protein stability index.
Response given: 3.75

Challenge: For the variant S7M , give its reported protein stability index.
Response given: 2.6

Challenge: For the variant G18Y , give its reported protein stability index.
Response given: 2.65

Challenge: For the variant M19G , give its reported protein stability index.
Response given: 3.06

Challenge: For the variant G18E , give its reported protein stability index.
Response given: 3.39

Challenge: For the variant E20I , give its reported protein stability index.
Response given: 2.31

Challenge: For the variant V2N , give its reported protein stability index.
Response given: 4.96

Challenge: For the variant L22V , give its reported protein stability index.
Response given: 3.19

Challenge: For the variant K10R , give its reported protein stability index.
Response given: 2.75

Challenge: For the variant D13P , give its reported protein stability index.
Response given: 2.83

Challenge: For the variant P16E , give its reported protein stability index.
Response given: 3.04

Challenge: For the variant S24K , give its reported protein stability index.
Response given: 2.82

Challenge: For the variant S21F , give its reported protein stability index.
Response given: 2.5

Challenge: For the variant M19W , give its reported protein stability index.
Response given: 2.67

Challenge: For the variant D8T , give its reported protein stability index.
Response given: 2.66

Challenge: For the variant A14I , give its reported protein stability index.
Response given: 2.65

Challenge: For the variant D13C , give its reported protein stability index.
Response given: 2.56

Challenge: For the variant I4L , give its reported protein stability index.
Response given: 2.75

Challenge: For the variant L9P , give its reported protein stability index.
Response given: 3.62

Challenge: For the variant D13W , give its reported protein stability index.
Response given: 2.62

Challenge: For the variant D3Y , give its reported protein stability index.
Response given: 2.15

Challenge: For the variant S24Q , give its reported protein stability index.
Response given: 3.9

Challenge: For the variant P17C , give its reported protein stability index.
Response given: 2.58

Challenge: For the variant S24A , give its reported protein stability index.
Response given: 3.1

Challenge: For the variant F1A , give its reported protein stability index.
Response given: 5

Challenge: For the variant I23N , give its reported protein stability index.
Response given: 2.6

Challenge: For the variant L22P , give its reported protein stability index.
Response given: 3.36

Challenge: For the variant S7N , give its reported protein stability index.
Response given: 2.57

Challenge: For the variant E20V , give its reported protein stability index.
Response given: 2.66

Challenge: For the variant D8E , give its reported protein stability index.
Response given: 2.89

Challenge: For the variant D12T , give its reported protein stability index.
Response given: 2.65

Challenge: For the variant I4Y , give its reported protein stability index.
Response given: 2.52

Challenge: For the variant I4K , give its reported protein stability index.
Response given: 2

Challenge: For the variant S7R , give its reported protein stability index.
Response given: 2.47

Challenge: For the variant D8I , give its reported protein stability index.
Response given: 2.56

Challenge: For the variant E6T , give its reported protein stability index.
Response given: 2.58

Challenge: For the variant P17K , give its reported protein stability index.
Response given: 2.45

Challenge: For the variant V2S , give its reported protein stability index.
Response given: 5.04

Challenge: For the variant A14V , give its reported protein stability index.
Response given: 3.15

Challenge: For the variant I4M , give its reported protein stability index.
Response given: 2.47

Challenge: For the variant D13I , give its reported protein stability index.
Response given: 2.08

Challenge: For the variant I23A , give its reported protein stability index.
Response given: 3.54

Challenge: For the variant D8A , give its reported protein stability index.
Response given: 2.58

Challenge: For the variant D12R , give its reported protein stability index.
Response given: 2.16

Challenge: For the variant F1K , give its reported protein stability index.
Response given: 5.17

Challenge: For the variant D13F , give its reported protein stability index.
Response given: 2.38

Challenge: For the variant S24T , give its reported protein stability index.
Response given: 3.02

Challenge: For the variant V2D , give its reported protein stability index.
Response given: 5.14

Challenge: For the variant S21M , give its reported protein stability index.
Response given: 2.96

Challenge: For the variant S21Q , give its reported protein stability index.
Response given: 2.83

Challenge: For the variant V2W , give its reported protein stability index.
Response given: 3.32

Challenge: For the variant A14K , give its reported protein stability index.
Response given: 2.96

Challenge: For the variant L22M , give its reported protein stability index.
Response given: 3.1

Challenge: For the variant S21D , give its reported protein stability index.
Response given: 3.15

Challenge: For the variant D8F , give its reported protein stability index.
Response given: 2.32

Challenge: For the variant A14E , give its reported protein stability index.
Response given: 3.05

Challenge: For the variant P17N , give its reported protein stability index.
Response given: 2.66

Challenge: For the variant F1C , give its reported protein stability index.
Response given: 4.49

Challenge: For the variant A14Q , give its reported protein stability index.
Response given: 2.33

Challenge: For the variant S21C , give its reported protein stability index.
Response given: 2.93
